Where these numbers come from: the nanobody polyreactivity screen of Harvey et al. (2022)

# procedure details: yeast display, Sf9 membrane polyspecificity reagent, FACS + sequencing; frameworks hold sequencing errors
measured endpoint: polyreactivity (PSR sort gate)

>>> df
                              sequence_data      measured_result
0  QVQLVESGGVLVQAGGSLRLSCAASGSTFSRYAMGWYRQAPGKETELVAAINWSGGRTYYADSVKGRFTISRDNAKNTVYLQMNSLIAADTAVYFCAADGRRYSGEYYYWGQGTQVTVSS  high polyreactivity
1  QVQLVESGGGLVQAVGSLRLSCAASGRTLSRNAKGWYRQAPGKEREFVAAISSRGTSTYYADSVKGRFTISRDNAKNSVYLQMNSLKPEDTAVYYCATTLGGNYGYDYWGQGTQVTVSS  high polyreactivity

###

# procedure details: yeast display, Sf9 membrane polyspecificity reagent, FACS + sequencing; frameworks hold sequencing errors

sequence data	polyreactivity (PSR sort gate)
QVQLVESGGGLVQAGGSLRLSCAASGRIFRYNTMGWYRQAPGKERELVADINSGGSTYADSVKGRFTISRDNAKNTVYLQMNSLKPEDTAVYYCNADSGLRAGYYYGYDYWGQGTQVTVSS	low polyreactivity
QVQLVESGGGLVQAGGSLRLSCAASGRTFVGYSMGWYRQAPGKEREFVATITSSGRTNYADSVKGRFTISRDNAKNTVYLQMNSLKPEDTAVYYCNAVYGRFVDLRYDYWGHGTQVTVSS	high polyreactivity
QVQLVESGGGLVQAGGSLRLSCAASGRIFGGYVMGWYRQAPGKEREFVAAISGRGTSTSYADSVKGRFTISRDNAKNTVYVQMNSLKPEDTAVYYCAARPKSDYSNGGNYWGQGTQVTVSS	high polyreactivity
QVQLVESGGGLVQAGGSLRLSCAASGSIFWIYAMVWSRQAPGKERELVAVISDRGARTYYADSVKGRFTLSRDNAKNTVYLQMNSLKPEDTAVYYCNADTRQARLQKMDSWGQGTQVTVSS	high polyreactivity
QVQLVESGGGLVQAGGSRRLSCAASGFFFDVNAMGWYRQAPGTEREWVATISKRGGTTYYADSVKGRFTISRDNAKNTVYLQMNSLKQEDTAVYYCAARHQSLRSYRYDYWGQGTQVTVSS	low polyreactivity
QVQLVESGGGLVQAGRSIRLTCAASGITFSEYAMGWYRQAPGKEREFVAAISRRGGSTYYADYVKGRFTISSDNAKNTVYLQMNSLKAEDTAVYYCNRRYVTFRFEQDYDYWGQGNQVTVSS	low polyreactivity
QVQLVESGGGLVQAGGSLRLSSAASGIIFTFNAMRWYRQAPGKEMELVAGISLGGSSTNYADSVKGRFTISRDNAKNTVYLQMNSLKPEDTAVYYCAAYVDIVGDYWVVGYYYWGQGTQVTVSS	low polyreactivity
QVQLHESGGGLVQAGGSLRLSCAASGTISYAGPMGWYRQAPGTEREFVAGIGVGSNTNYADSVKGRYTIIRDNAKNTVYLQMNSLKPEDTAVYYCAVGGYAPLGRPYWGQGTQVTVSS	low polyreactivity
QVQLVESGGGLVQAGGSLRLSCAASGRILRPYAMGWYRQAPGKERELDAGITVRGGTTYYADSVKGRFTISRDNAKNTVYLQMNILKPEDTAVYYCAATDIHYGPSYIPYWYGYCGQGTQVTVSS	high polyreactivity
QVQLVESGGGLVQAGGSLRLSCAASGRISRVYVMGWYRQAPGKERELVAAISFRGGSTFYADSVKGRFTISRDNAKNTVYLQMNSLKPEDTAVYYCAATVYPLAYDYWGQGTQVTVSS	high polyreactivity
QVQLVESGGGLVQEGGSLRLSCAASGNTVGINAMGWYRQAPGKERELVASISFTGSSTYYADSVKGRFTISRDNAKNTVYFQMNSLKPEDTAVSYCNRDRITLYEYDYWGQGTQVTVSS	low polyreactivity

###

# procedure details: yeast display, Sf9 membrane polyspecificity reagent, FACS + sequencing; frameworks hold sequencing errors

sequence data	polyreactivity (PSR sort gate)
QVQLVESGGGLVQAGGSLRLSCAASGSIFKVYAMGWYRQAPGKERELVATISGSGGSTYYADSVKGRFTISRDNAKKTVYLQMNSLKPEDTAVYYCAADAGYAFAVGGGWVEALYDYWGQGTQVTVSS	low polyreactivity
QVQLVESGGGLVQAGGSLRLSCAASGRIFWGYAMGWYRQAPGKERELVAGIRTSGGTTYYADSVKGRFTISRDNAKNTVYLQMNSLKPEDTAVYYCAVVQYTVYNSLYDYWGQGTQVTVSS	low polyreactivity
QVQLVESAGGLVQAGGSLRLSCAASGRIFWDYAMGWYRQAPGKERELVATITQNDGSTYYADSVKGRFTISRDNAKNTVYLQMNSLKPEDTAVYYCAAYLLGWFTIKYDYGGQGTQVTVSS	low polyreactivity

###

# procedure details: yeast display, Sf9 membrane polyspecificity reagent, FACS + sequencing; frameworks hold sequencing errors

sequence data	polyreactivity (PSR sort gate)
QVQLVESGGGLVQAGGSLRLSCASTGRIFDRNAMGWYRQAPGKVRELVAAISRRGGSTYYADSVKGRFTISRDNAKNNVYLQMNILKPEDTAVYYCNSGYSTRLHDYWGQGTQVTVSS	high polyreactivity
QVQLVQSRGGLVQAGGSLRISCAASGRIFNPNAMRWDRQAPVKQRELVAAITRGGSTNYADSVKGRLTISRDNAKNTVYLQMISLQPEVSAVLYCAADFKTWYCDFDYCGQGTQVTVSS	high polyreactivity
QVQLVESGGGLVQAGGSLRLSCAASGIIFRWYVMGWYRQAPGKERELVAAISYRRGSTNYADSVKGRFTISRDNAKNTVYLQMNSLKPEDTAVYYCNRVPYPGSRRKYDYWGQGTQVTVSS	high polyreactivity

###

# procedure details: yeast display, Sf9 membrane polyspecificity reagent, FACS + sequencing; frameworks hold sequencing errors

sequence data	polyreactivity (PSR sort gate)
QVQLVESGGGLVQAGGSLRLSCAASGNTFDYYAMGWYRQAPGKERELVAAITRGGSTNYADSVKGRFTISRDNAKNTVYLQMNSLKPEDTAGYYCAAEQRAPRFADYDYWGQGTQVTVSS	low polyreactivity
QVQLVESRGGLVQAGGSLRLSCAASGFTFRYYAMGWYRQAPGKERELVARITRCASTSYADSVKGRFTISRDNAKNTVYLLMISLIPEDTAVYYCAADSPAGGYVFPELPYDYWGQGTQVTVSS	low polyreactivity
QVQLVESGGGLVQAGGSLRLSCAASGSTFAFNAMGWYRQAPGQERELVAGITWSSGSTYYADSVKGRFTISRDNAKNTVYLQMNSLKPEDTAVYYCNVQSVHFRLWKDNYWGQGTQVTVSS	high polyreactivity
QVQLVESGVGLVQAGGSLRLSCAASGFIFYPNAMGWYRQAPGKEREWVAVITGGGSTRYADSVKGRFTISRDNAKNTVYLQMNSLKPEDTAVYYCAVGTVYLTYRGYEYWGQGTQVTVSS	high polyreactivity
QVQLVESGGGLVQAGGRLRLSCAASGSIFAGYVMGWYRQAPGKERELVAAISKSGGSTYYADSVKGRFTISRDNAKNTVSLQMNSLKPEDTAVYYSAKDHYYVDYDYWGQGTQVTVSS	high polyreactivity
QVQLVESGGGLVQAGGTLRLSCAASGIIFDTYVMGWYRQAPGKERELVAAITRSGGRTRYADTVKGRFTISRYNAKNTVYLQMNSLKPEDTAVYYCAARIPDRQDGYGYWGQGTQVTVSS	high polyreactivity
QVQLVESGGGLVQAGGSLRLSCAASGFTFYQYAMGWYRQAPGKERELVAAISSSGTSTYYADSVKGRFTISRDNAKNTVYLQMNSLKPEDTAVYYCAKDKSPYGYATNQYRKYYYWGQGTQVTVSS	low polyreactivity
QVQLVESGGGLVQAGGSLRLSCAASGRIFDRNAMGWYRPSPGTERELLAAIDDSGGDTSYADSVKGRFTISRDNAKNTVYLQMNSLKPEDTAVYYCNAGYADFVTYPRYYYWGQGTQVTVSS	low polyreactivity
QVQLVESGGGLVQAGGSLRLSCAASGNTLTPYTMGWYRQAPGKERELVAAINRSGGSTYYADSVKGRVTISRDNGKNTVYLQMNSLKPEDTAVYYCAAFGYYNFGYYYWGQGSQVTVSS	high polyreactivity
QDQLVETLGGLVQAGASLRLSCAASGSIFGNNAMVWYRQEPGKERELVAAISGTGGTTYADSVKGRFTISRDNAKNTVYLQMNSLKPEDTAVYYWALRVWVRDYPFGYARYGYWGQGTQVTVSS	low polyreactivity
QVQLVESGGGLVQAGGSLRLSCAASGSIFAVYAMGWYRQAPGKERELVAASSTDYADSVKGRFTISRDNAKNTVYLQMNSLKPEDTAVYYCAKVGFGIPGGFYFWGQGTQVTVSS	low polyreactivity

###

# procedure details: yeast display, Sf9 membrane polyspecificity reagent, FACS + sequencing; frameworks hold sequencing errors

sequence data	polyreactivity (PSR sort gate)
QVQLVESGGGLVQAGGSLRLSCAASGGIFSYNALGWYRQAPGKERELVAAISYSSTRTYYADSVKGRFTISRDNAKKTVYLQMNSLKREDTAVYYCAARLSRTRHTSDYWGQGTQVTVSS	high polyreactivity
QVQLVESGGGLDQAGGSLRLSCAASGSTFKHNAMGWYRQAPGKERKLVAGISWGGSSTYYADSVKGRFTISRDNAKNTVYLQMNSLKPEDTAVYYCAKGGYRRYGYDYWGQGTQETVSS	low polyreactivity
QVQRVESGGGIVQAGGSLRLSCAASGSTFSYYAMGWYRQAPGKERELVAAISSSGGNTYYADSVKGRFTISRDNAKNTVYLQMNSLKPEDTAVYYCAKLYRYIYGGMDYWGQGTQVTVSS	high polyreactivity
QVQLVESGGGLVQAGGSLRLSCAASGSIFQWNAMGWYRQAPGKERELVAAISSGTSTNYADSVKGRFTISRDNAKNTVYLQMNSLKPEDTAVYYCAAEGRGWAAFEVGYWGQGTLVTVSS	low polyreactivity
QVQLVESGGGLVQAGGSLRLSCAASGSISIRNAMGWYRQAPGKERELVAAISRGGSTYYADSVKGRFTISRDNAKNKVYLQMNSLKPEDTAVYYCNVLHLRRTAIMDYWGQGTQVTVSS	high polyreactivity
QVQLVESGGGLVQAGGSLRLSCAASGFIFYPNAMGWYRQAPGKERELVAAISSSTGSTYYADSVKGRFTISRDNAKNTVYLQMNSLNRVDTAGYYCAADLEYYPIGGDLQEREYWGQGTQVTVSS	low polyreactivity
QVQLVESGGGLVQAGGSLRLSCAASGIIFGHYAMGWYRQAPGKERELVAAIRSSGGTTYYADSVKGRFTISRDNAKNTVYLQMNSLKPEDTAVYYCAKRGVHLYHDYYWGQGTQVTVSS	low polyreactivity
